# system: Glutamate NMDA receptor
# test_description: Activity against rat cortical and hippocampal membrane strychnine-insensitive N-methyl-D-aspartate glutamate receptor 1 using [3H]-gly
# Assay type: tissue-based, Hippocampus
pIC50: −log10 of the molar value.

molecule	pIC50
O=C(O)c1cc2c(Cl)cc(Cl)cc2[nH]1	5.22
O=C(O)CCc1c(C(=O)O)[nH]c2ccccc12	4.52
O=C(O)c1cc(O)c2ccc(Cl)cc2n1 [7-CHLOROKYNURENIC ACID]	6.40
O=C(O)CCc1c(C(=O)O)[nH]c2cccc(Cl)c12	5.22
O=C(O)CCc1c(C(=O)O)[nH]c2cc(Cl)cc(Cl)c12	6.85
O=C(O)CCc1c(C(=O)O)[nH]c2ccc(Cl)cc12	4.85
O=C(O)c1cc2ccccc2[nH]1 [INDOLE-2-CARBOXYLIC ACID]	3.97
